Assay: Cytotoxicity against human HEL 299 cells
Assay type: toxicity, cell-based
Listing of entries alongside the reported CC50.

# Smiles structure, CC50
rows = [
    ("Nc1nc2c(ncn2C[Se]C(CO)CO)c(=O)[nH]1", "> 100 µM"),
    ("Nc1nc2c(ncn2C[Se]CCO)c(=O)[nH]1", "> 100 µM"),
]

====

Assay: Cytotoxicity against human HEL cells
Format: toxicity, cell-based
Reported endpoint: CC50 (µM)

# Smiles structure, Reported endpoint, U, Relation sign, Reading
rows = [
    ("O=c1nc2oc(CCCCCCCCCCl)cc2cn1[C@H]1C[C@H](O)[C@@H](CO)O1", "CC50", "µM", "=", 200),
    ("O=c1nc2oc(CCCCCCCCCI)cc2cn1[C@H]1C[C@H](O)[C@@H](CO)O1", "CC50", "µM", ">", 200),
    ("O=c1nc2oc(CCCCCCCCCBr)cc2cn1[C@H]1C[C@H](O)[C@@H](CO)O1", "CC50", "µM", ">", 50),
    ("O=c1nc2oc(CCCCCCCCCF)cc2cn1[C@H]1C[C@H](O)[C@@H](CO)O1", "CC50", "µM", "=", 200),
]
